// CREATININE lookup, one value per entry
Species on record: Rattus norvegicus
experiment: DrugMatrix - Regimen: Daily Repeat
Format: toxicity, organism-based, Sprague-Dawley
Parameters: regimen Daily Repeat, gender Male, age 6-8 weeks
testContext: in vivo, po, 0 mg/kg, 72 h, tissue Plasma, route oral GAVAGE, dose level Control, time 3 day, vehicle .5 % CMC
Express the result in mg/dL but write the number alone.

Worked examples, 4 compounds total:
compound=CN1CCC(=C2c3ccccc3C=Cc3ccccc32)CC1 measurednumber=0.52
compound=CO[C@H]1/C=C/O[C@@]2(C)Oc3c(C)c(O)c4c(c3C2=O)C2=NC3(CCN(CC(C)C)CC3)NC2=C(NC(=O)/C(C)=C\C=C\[C@H](C)[C@H](O)[C@@H](C)[C@@H](O)[C@@H](C)[C@H](OC(C)=O)[C@@H]1C)C4=O measurednumber=0.18
compound="N=C(N)NC(=O)c1nc(Cl)c(N)nc1N [AMILORIDE]" measurednumber=0.57
compound="O=C1CCC(N2C(=O)c3ccccc3C2=O)C(=O)N1 (stereo unspecified) [THALIDOMIDE]" measurednumber=0.55

(Q) Any idea what its CREATININE is? The compound is `O=[N+]([O-])c1ccccc1`
(A) 0.48

(Q) Any idea what its CREATININE is? The compound is CN1C(=O)COc2c(C(=O)NC3CN4CCC3CC4)cc(Cl)cc21 (stereo unspecified)
(A) 0.14

(Q) Any idea what its CREATININE is? The compound is C[C@](O)(CS(=O)(=O)c1ccc(F)cc1)C(=O)Nc1ccc(C#N)c(C(F)(F)F)c1 [(R)-BICALUTAMIDE]
(A) 0.18

(Q) Any idea what its CREATININE is? The compound is `Clc1ccc2c(c1)C(N1CCNCC1)=Nc1ccccc1O2`
(A) 0.19

(Q) Any idea what its CREATININE is? The compound is `C#C[C@]1(O)CC[C@H]2[C@@H]3CCc4cc(OC)ccc4[C@H]3CC[C@@]21C`
(A) 0.18

(Q) Any idea what its CREATININE is? The compound is OC(CCN1CCCCC1)(c1ccccc1)C1CCCCC1 (stereo unspecified)
(A) 0.14

(Q) Any idea what its CREATININE is? The compound is `CC[C@@H](CO)NCCN[C@@H](CC)CO`
(A) 0.57

(Q) Any idea what its CREATININE is? The compound is CC(=O)CC(c1ccccc1)c1c(O)c2ccccc2oc1=O (stereo unspecified)
(A) 0.21

(Q) Any idea what its CREATININE is? The compound is CC(C)[C@H]1CC[C@H](C(=O)N[C@H](Cc2ccccc2)C(=O)O)CC1 [NATEGLINIDE]
(A) 0.27

(Q) Any idea what its CREATININE is? The compound is `CNC(=C[N+](=O)[O-])NCCSCc1ccc(CN(C)C)o1`
(A) 0.18

(Q) Any idea what its CREATININE is? The compound is `Cc1onc(-c2ccccc2)c1-c1ccc(S(N)(=O)=O)cc1`
(A) 0.57

(Q) Any idea what its CREATININE is? The compound is `C[C@]1(Cn2ccnn2)[C@H](C(=O)O)N2C(=O)C[C@H]2S1(=O)=O`
(A) 0.2

Numbers sourced from ChEMBL document CHEMBL3885881.
